Where do these numbers come from? They come from the supplement of paper PMC8728848.

Here the recorded glycan array binding signal (z-score) is given for each entry.
Molecular target: Neu5Ac(a2-6)Gal(b1-4)GlcNAc(b1-2)Man(a1-6)Man(b1-4)GlcNAc(b1-4)GlcNAc
Assay: glycan array binding signal (z-score within array); higher = stronger binding
Conditions: glycan notation: IUPAC condensed, linker removed
The sample as a whole holds a higher share of the strongest signals than the screen did.

binder | glycan array binding signal (z-score)
AidA (Burkholderia cenocepacia) (protein) MSRVTDVLVSFDTETILKKYPNPSKNPAAPTLIDWRYVYMVTNQDNVISGQAGGELDLKAQVGDLIRWRETSLSLGFENQVVFYKFIGNVGNDLISTPTPRVAEASIPVPNTSKPEVPTCQKVANYYWSSECLKVGRVTYHFQFQIIDRNCQSQGCFSWDPFISIHN | -0.428
Eosinophil-derived neurotoxin (EDN) (Homo sapiens), P10153 (protein) MVPKLFTSQICLLLLLGLLAVEGSLHVKPPQFTWAQWFETQHINMTSQQCTNAMQVINNYQRRCKNQNTFLLTTFANVVNVCGNPNMTCPSNKTRKNCHHSGSQVPLIHCNLTTPSPQNISNCRYAQTPANMFYIVACDNRDQRRDPPQYPVVPVHLDRII | 0.578
PEB1 (Campylobacter jejuni), Q0P9X8 (protein) MVFRKSLLKLAVFALGACVAFSNANAAEGKLESIKSKGQLIVGVKNDVPHYALLDQATGEIKGFEVDVAKLLAKSILGDDKKIKLVAVNAKTRGPLLDNGSVDAVIATFTITPERKRIYNFSEPYYQDAIGLLVLKEKKYKSLADMKGANIGVAQAATTKKAIGEAAKKIGIDVKFSEFPDYPSIKAALDAKRVDAFSVDKSILLGYVDDKSEILPDSFEPQSYGIVTKKDDPAFAKYVDDFVKEHKNEIDALAKKWGL | 1.09
FimA-N2 (Actinomyces oris) (protein) MHHHHHHSSGVDLGTENLYFQSNAWIYDVNVYPKNEAIDVDKTIQAQKLNGYGVGSLIKFPVESTAPTLDAKSFYKYFQLKDTLDERLSEVTATDVSLEGTPLQPTDYKVETKQQTVTVTFTAEGLKKIKAAPGKKVSAVFQGKVTKAGNGAITNRAQVISDTLYAEQPPTPETPPTDPENPPTSDEVISRWGDLSIKKVDTHQQGQTKA | -0.759
F17aG (Escherichia coli), Q99003 (protein) MTNFYKVFLAVFILVCCNISQAAVSFIGSTENDVGPSLGSYSRTHAMDNLPFVYDTRNKIGYQNANVWHISKGFCVGLDGKVDLPVVGSLDGQSIYGLTEEVGLLIWMGDTKYSRGTAMSGNSWENVFSGWCVGANTASTQGLSVRVTPVILKRNSSARYSVQKTSIGSIRMRPYNGSSAGSVQTTVNFSLNPFTLNDTVTSCRLLTPSAVNVSLAAISAGQLPSSGDEVVAGTTSLKLQCDAGVTVWATLTDATTPSNRSDILTLTGASTATGVGLRIYKNTDSTPLKFGPDSPVKGNENQWQLSTGTETSPSVRLYVKYVNTGEGINPGTVNGISTFTFSYQ | -0.167
